Where do the numbers come from? From ChEMBL document CHEMBL1201862.

# Tested on: HL-60
# procedureText: NCI tumour cell line growth inhibition, 48 h
Activity calls are given as the source filed them. Cut-off read from the data, not from the text of the source: active = GI50 up to about 1.1 µM and inactive = higher.
quantityMeasured: GI50

> print(dat)
                                   compound  quantitymeasured              reading
1               Cc1cc(C)c2c(c1)N[S@@](=O)S2              GI50   26.4 µM (inactive)
2  COc1ccc(/N=N\c2c(N)nn3c(SC)c(C#N)c(N)nc23)cc1              GI50   2.71 µM (inactive)
3                c1cc2c(c(NC3=NCCO3)c1)CCC2              GI50   60.1 µM (inactive)
4  CC1=NOC(=O)C1/N=N/c1ccc(Br)c(C)c1 (stereo unspecified)              GI50   8.39 µM (inactive)
5         O=c1[nH]c2ccsc2c(=O)n1COCc1ccccc1              GI50  > 100 µM (inactive)
6  O=C(Nc1ccc(S(=O)(=O)/N=c2\ncccn2C(=O)C(C(F)(F)F)C(F)(F)F)cc1)C(C(F)(F)F)C(F)(F)F              GI50  > 100 µM (inactive)

* * *

# Tested on: PC-3
# procedureText: NCI tumour cell line growth inhibition, 48 h
Active and inactive are the calls of the source. Cut-off read from the data, not from the text of the source: active = GI50 up to about 1.1 µM and inactive = higher.

molecule	GI50
CCOC(=O)OC1C(Br)C2CCC1(C)C2(C)C (centres undefined)	11.3 µM (inactive)
CS(=O)(=O)N1CC(CCl)c2ccc(O)cc21 (centres undefined)	2.17 µM (inactive)
COc1cc(C[C@@H](C)N)cc(OC)c1	> 100 µM (inactive)
CN(C)CCCNC(=O)CCNC(=O)c1cc(NC(=O)c2cc(NC(=O)c3cc(NC(=O)c4nccn4C)cn3C)cn2C)cn1C	> 100 µM (inactive)
Nc1ncnc2c1ccn2COC(CO)CO	> 100 µM (inactive)
C=C1C/C(=C/C)C(=O)O[C@@H]2CCN3CC=C(COC(=O)[C@]1(C)O)[C@H]23 [SENECIPHYLLINE]	> 100 µM (inactive)
CC1(C)CC2=C(Sc3ccccc3N2)C(=O)C1C(=O)C(=O)Nc1cccc([N+](=O)[O-])c1 (centres undefined)	75.9 µM (inactive)
CC1OC2OC3C(OCC(O)C3O)OC(=O)[C@]34CCC(C)(C)CC3C3=CCC5[C@@]6(C)C[C@H](O)[C@H](OC7OC(CO)C(O)C(O)C7OC7OCC(OC(=O)CC(C)(O)CC(=O)OC1C(O)C2O)C(O)C7O)[C@@](C)(CO)C6CC[C@@]5(C)[C@]3(C)CC4 (some centres undefined)	2.17 µM (inactive)
O=C(CSc1nc2ccc(I)cc2c(=O)n1Cc1ccccc1)NNC(=S)Nc1ccccc1	9.68 µM (inactive)

* * *

# System: NCI-H460
# procedureText: NCI tumour cell line growth inhibition, 48 h
Calls of active or inactive are those of the source. Cut-off read from the data, not from the text of the source: active = GI50 up to about 1.1 µM and inactive = higher.
Outcomes: active, inactive

molecule	assaySystem	group
CC1=C2O[B-](c3ccccc3)(c3ccccc3)[O+]=C2C=CN1	NCI-H460	inactive
O=C1c2ccccc2C(=O)N1c1ccc(Cc2ccc(N3C(=O)c4ccccc4C3=O)cc2)cc1	NCI-H460	inactive
Cc1ccc(S(=O)(=O)C2=Cc3ccccc3C2(O)c2ccccc2)cc1 (stereo not given)	NCI-H460	inactive
ClCCCN(CCCCl)c1ccc(/C=N/c2cccc(Cl)c2)cc1	NCI-H460	inactive
Cc1c[nH]c2c(O)cc3c(c12)[C@H](CCl)CN3C(=O)c1cc2cc(NC(=O)Nc3ccc4[nH]c(C(=O)N5C[C@@H](CCl)c6c5cc(O)c5[nH]cc(C)c65)cc4c3)ccc2[nH]1	NCI-H460	active
O=C1C(c2ccc([N+](=O)[O-])cc2)=C(Cl)C(=O)c2c(O)cccc21	NCI-H460	inactive
N#C/C(N)=C(\C#N)NC(=O)C(=O)N/C(C#N)=C(\N)C#N	NCI-H460	inactive
CCOc1ccc(NC(=O)CC2SC(N)=NC2=O)cc1 (stereo not given)	NCI-H460	inactive
COc1ncnc2c(NC3OC(CO)C(O)C3O)ncnc12 (stereo not given)	NCI-H460	active
CCOC(=O)N(C)C(=C(F)F)C(F)(F)F	NCI-H460	inactive
